pEC50: recorded values
- tested on: recombinant human GPC3 protein (R&D Systems) (human) (UniProt P51654)
- procedure summary: binding ELISA on plate-coated recombinant hGPC3, detection with goat anti-human Fc secondary antibody and TMB
pEC50: −log10 of the molar value.
property measured: pEC50

INSERT INTO assay_data (binder, readout_number) VALUES
  ('P1-G5 IgG variant of ARD-103 (antibody, V domains shown) VH: QVQLVESGAEVKKPGASVKVSCKASGYTFTDYEMHWVRQAPGQGLEWMGAIDPKTGDTAYSQKFKGRVTLTADKSTSTAYMELSSLTSEDTAVYYCTRFYSYTYWGQGTLVTVSS VL: DVVMTQSPLSLPVTPGEPASISCRSSQSLVHSNGNTYLQWYLQKPGQSPQLLIYKVSNRFSGVPDRFSGSGSGTDFTLKISRVEAEDVGVYYCSQVTHVPPTFGQGTKLEIKR', 10.02),
  ('P1-B9 IgG variant of ARD-103 (antibody, V domains shown) VH: QVQLVESGAEVKKPGASVKVSCKASGYTFTDYEMHWVRQAPGQGLEWMGALDPKTGDTALSQKFKGRVTLTADKSTSTAYMELSSLTSEDTAVYYCTRFYSYTYWGQGTLVTVSS VL: DVVMTQSPLSLPVTPGEPASISCRSSQSLVHSNGNTYLQWYLQKPGQSPQLLIYKVSNRFSGVPDRFSGSGSGTDFTLKISRVEAEDVGVYYCGQVTHVPPTFGQGTKLEIKR', 10.02),
  ('P1-D6 IgG variant of ARD-103 (antibody, V domains shown) VH: QVQLVQSGAEVKNPGASVKVSCKASGYTFTDYEMHWVRQAPGQGLEWMGALDPFTGDTAYSQKFKGRVTLTADKSTSTAYMELSSLTSEDTAVYYCTRFYSYTYWGQGTLVTVSS VL: DVVMTQSPLSLPVTPGEPASISCRSSQSLVHSNGNTYLHWYLQKPGQSPQLLIYKVSNRFSGVPDRFSGSGSGTDFTLKISRVEAEDVGVYYCLQNGYVPPTFGQGTKLEIKR', 9.96);
